The reported measurements were obtained from a flash point compilation (Sun et al. 2020).

// reported flash point per item
Supply the numeric figure in °C, leaving out any unit text.

CCCCOCCOCCOCCOCCO [2-[2-[2-(2-butoxyethoxy)ethoxy]ethoxy]ethanol] ... 166.00
CC(=O)OC(Cl)CCl (stereo not drawn) [1,2-dichloroethyl acetate] ... 153.00

Next compound, please.
Ask | Form field: reported flash point of c1ccc2c(c1)-c1cccc3cccc-2c13
Reply | 198.00

---

// reported flash point per item
Supply the numeric figure in °C, leaving out any unit text.

CC(C)(C)SC(C)(C)C [di-t-butyl sulfide] ... 48
COCC(C)O (stereo not drawn) ... 38
CCS ... -48
CC=CC#N ... 20
NCCCN ... 48

Ask | Form field: reported flash point of CCCOC(=O)CCC [propyl butyrate]
Reply | 37

Ask | Form field: reported flash point of CC(C)C=O [isobutyraldehyde]
Reply | -24

Ask | Form field: reported flash point of CCC(C)(C)O
Reply | 21

Ask | Form field: reported flash point of CC#N
Reply | 13

Ask | Form field: reported flash point of C=CCCCCCCCCO
Reply | 119

Ask | Form field: reported flash point of ClCCCCCl
Reply | 40

Ask | Form field: reported flash point of CC1=CC(=O)CC(C)(C)C1
Reply | 84

---

Observable: flash point (°C)
Supply the numeric figure in °C, leaving out any unit text.

These solved cases illustrate the format of a correct answer.
C=CC(=O)OCC [ethyl acrylate] ... 9
CCCCCCI ... 67
OCc1ccco1 ... 65
O=C1OC(=O)c2ccccc21 [phthalic anhydride] ... 152

Next compound, please.
Ask | Form field: reported flash point of CCCCN(CCCC)CCCC
Reply | 72

---

// reported flash point per item
Put down the number, then write its unit next to it.

These solved cases illustrate the format of a correct answer.
CCCCCBr [1-bromopentane] ... 31 °C
C1CCCNCC1 [hexamethyleneimine] ... 18 °C
CN(CCO)CCO [methyldiethanolamine] ... 138 °C
ClCCCCl [1,3-dichloropropane] ... 32 °C
CCCCCl [1-chlorobutane] ... -12 °C

Ask | Form field: reported flash point of CCC(C)I (stereo unspecified) [2-iodobutane]
Reply | 23 °C

---

Observable: flash point (°C)
Supply the numeric figure in °C, leaving out any unit text.

These solved cases illustrate the format of a correct answer.
COCCOC(=O)c1ccccc1C(=O)OCCOC [bis(2-methoxyethyl) benzene-1,2-dicarboxylate] ... 210.00
Fc1ccc(Br)cc1 [1-bromo-4-fluorobenzene] ... 60.00
CCCCCCCC(=O)Cl [octanoyl chloride] ... 81.00
CN [methanamine] ... 0.00

Next compound, please.
Ask | Form field: reported flash point of CN(C)C1CCCCC1 [N,N-dimethylcyclohexanamine]
Reply | 42.00

---

Observable: flash point (°C)
Supply the numeric figure in °C, leaving out any unit text.

These solved cases illustrate the format of a correct answer.
CCCN(CCC)CCC ... 41.00
O=[N+]([O-])c1cccc2ccccc12 ... 164.00

Ask | Form field: reported flash point of c1ccc(Oc2ccccc2)cc1
Reply | 96.00

Ask | Form field: reported flash point of CCCC=C(C=O)CC
Reply | 68.00

Ask | Form field: reported flash point of CCCCCCO
Reply | 60.00

Ask | Form field: reported flash point of CC=O
Reply | -38.00

Ask | Form field: reported flash point of COC
Reply | -41.00

---

Observable: flash point (°C)
Supply the numeric figure in °C, leaving out any unit text.

Cc1ccccc1C ... 30.1
CCc1cc(C)cc(C)c1 ... 57.4
CCc1cccc(CC)c1CC ... 79

Ask | Form field: reported flash point of CCCCc1cccc(C)c1
Reply | 70.8

Ask | Form field: reported flash point of CCCc1ccc(C)cc1
Reply | 56.4

Ask | Form field: reported flash point of CCC(C)Cc1ccccc1 (centres undefined)
Reply | 64.1

---

Observable: flash point (°C)
Supply the numeric figure in °C, leaving out any unit text.

These solved cases illustrate the format of a correct answer.
CCCCC(CC)COC(=O)/C=C\C(=O)OCC(CC)CCCC (stereo not drawn) [bis(2-ethylhexyl) (Z)-but-2-enedioate] ... 185.00
NCCO ... 93.00
C=C(C)C(=O)OCC [ethyl 2-methylprop-2-enoate] ... 16.00
O.c1cc[c]([Sn]([c]2ccccc2)[c]2ccccc2)cc1 [triphenyltin;hydrate] ... 400.00

Ask | Form field: reported flash point of c1ccsc1
Reply | -1.00

Ask | Form field: reported flash point of CCCCN=C=O
Reply | 19.00

Ask | Form field: reported flash point of Ic1ccccc1
Reply | 77.00

Ask | Form field: reported flash point of CCNC1CCCCC1
Reply | 29.00

---

// reported flash point per item
Supply the numeric figure in °C, leaving out any unit text.

These solved cases illustrate the format of a correct answer.
C=C(Cl)Cl [1,1-dichloroethylene] ... -25
C1CCNCC1.Cl [piperidine hydrochloride] ... 65

Next compound, please.
Ask | Form field: reported flash point of CC(C)(Cl)Cl [2,2-dichloropropane]
Reply | -5

---

// reported flash point per item
Supply the numeric figure in °C, leaving out any unit text.

OCCCCCO ... 136
O=C1CCCCCC1 ... 55
CN ... -62
C=C(C)C#N ... 1
CCCC(=O)OCC [ethyl butyrate] ... 19
Clc1cccc(Cl)c1 ... 63
Clc1ccccc1Cl ... 67
Clc1ccccc1 ... 27
CCCCCCCCCl ... 63

Next molecule, please.
Ask | Form field: reported flash point of CCCC#N
Reply | 16

---

// reported flash point per item

These solved cases illustrate the format of a correct answer.
CCCO ... 15.00 °C
CCCC(C)O (stereo unspecified) ... 39.00 °C
c1ccc2cc3ccccc3cc2c1 ... 121.00 °C
CC(C)Cc1ccccc1 ... 52.00 °C
SCc1ccccc1 ... 70.00 °C
Cc1ccc([N+](=O)[O-])cc1 ... 106.00 °C
CC(=O)OCc1ccccc1 [Benzyl acetate] ... 102.00 °C
CCCCOC(C)=O [n-Butyl acetate] ... 27.00 °C

Ask | Form field: reported flash point of CCC(C=O)CC
Reply | 21.00 °C

Ask | Form field: reported flash point of ClCCCCl
Reply | 35.00 °C

Ask | Form field: reported flash point of C=COC
Reply | -51.00 °C

Ask | Form field: reported flash point of C=Cc1ccccc1
Reply | 31.00 °C

---

// reported flash point per item
Supply the numeric figure in °C, leaving out any unit text.

CCc1c(C)cccc1C ... 62.0
CC(C)Cc1ccccc1 ... 50.1

Next compound, please.
Ask | Form field: reported flash point of Cc1cc(C)cc(C)c1
Reply | 44.1

---

Observable: flash point (°C)
Supply the numeric figure in °C, leaving out any unit text.

NC1CCCCC1 [cyclohexylamine] ... 28
CCCC(=O)O [n-butyric acid] ... 69

Next compound, please.
Ask | Form field: reported flash point of CCC(C)(C)O.CCC(C)(C)O [tert-amyl alcohol (2-methyl-2-butanol)]
Reply | 20

---

// reported flash point per item
Supply the numeric figure in °C, leaving out any unit text.

C#CCO [Propargyl alcohol] ... 36.00

Ask | Form field: reported flash point of CCCC(=O)OC(=O)CCC [n-Butyric anhydride]
Reply | 88.00

Ask | Form field: reported flash point of N#CCCCCC#N [Adiponitrile]
Reply | 93.00

Ask | Form field: reported flash point of O=CO [Formic acid]
Reply | 69.00

Ask | Form field: reported flash point of CC(=O)Oc1ccccc1 [Phenyl acetate]
Reply | 80.00

Ask | Form field: reported flash point of CC(C)[N+](=O)[O-] [2-Nitropropane]
Reply | 39.00

---

Where a name gives a salt, the structure may show the parent alone.
// reported flash point per item
Supply the numeric figure in °C, leaving out any unit text.

Cc1ccc(C(C)C)cc1 ... 47.00
Nc1cc(Cl)ccc1Cl ... 166.00

Next compound, please.
Ask | Form field: reported flash point of COC=O [Methyl formate]
Reply | -19.00
